# maps each entry to its EC50
- Tested on: Calu-6 cells
- Measurement notes: Compounds cellular killing in Calu-6 cancer line (Cell Titer-Glo, 6 days)
- Assay type: cell-based, human
- Applied conditions: Homo sapiens, Calu-6, 144 h, 6 days incubation, cell viability by Cell Titer-Glo
Answer format: numeric, nM implied, no suffix.

Recorded EC50, per entry:
COc1cc2c(cc1OCc1cccc(COc3cc4c(cc3OC)C(=O)N3CC5(CC5)C[C@H]3CN4)c1)NC[C@@H]1CC3(CC3)CN1C2=O
0.358
COc1cc2c(cc1OCCNCCOc1cc3c(cc1OC)C(=O)N1CC4(CC4)C[C@H]1C=N3)N=C[C@@H]1CC3(CC3)CN1C2=O
1.62
C=C1C[C@H]2C=Nc3cc(OCCNCCOc4cc5c(cc4OC)C(=O)N4CC(=C)C[C@H]4C=N5)c(OC)cc3C(=O)N2C1
1.2

Note: attention shifts to another entry.
-- ask Specify measured EC50 for COc1cc2c(cc1OCc1cccc(COc3cc4c(cc3OC)C(=O)N3CC5(CC5)C[C@H]3C=N4)n1)N=C[C@@H]1CC3(CC3)CN1C2=O .
-- reply 0.005

* * *

- Tested on: A375 cells
- Measurement notes: Compounds cellular killing in A375 cancer line (Cell Titer-Glo, 6 days)
- Type: cell-based, human
- Applied conditions: Homo sapiens, A-375, 144 h, 6 days incubation, cell viability by Cell Titer-Glo
- Procedure: A375 (ATCC, CRL-1619). […] The base medium for A375 is DMEM, high glucose, GlutaMAX™ Supplement (Gibco, 10566024). To make the complete growth medium, fetal bovine serum was added to the base mediumat a final concentration of 10% (Gibco, 10099-141C). […] Payload direct killing by compounds 1-1 to 1-22 was assessed in A375 and Calu-6 cancer cell lines. […] The cell viability detected by Cell Titer-Glo (Promega, G7573), 70 μL/well. […] The plates were analyzed with a microplate reader.
pEC50: −log10 of the molar value.
One threshold, 10, splits the recorded pEC50 values: lower ones are true, equal or higher ones are false.

Recorded results for 3 compounds are shown here.
COc1cc2c(cc1OCCOCCOc1cc3c(cc1OC)C(=O)N1CC4(CC4)C[C@H]1C=N3)N=C[C@@H]1Cc3ccccc3CN1C2=O
true
COc1cc2c(cc1OCCNCCOc1cc3c(cc1OC)C(=O)N1CC4(CC4)C[C@H]1C=N3)N=C[C@@H]1CC3(CC3)CN1C2=O
true
COc1cc2c(cc1OCc1cc(O)cc(COc3cc4c(cc3OC)C(=O)N3CC5(CC5)C[C@H]3C=N4)c1)N=C[C@@H]1CC3(CC3)CN1C2=O
true

-- ask Answer whether the compound COc1cc2c(cc1OCCCCCOc1cc3c(cc1OC)C(=O)N1CC4(CC4)C[C@H]1C=N3)N=C[C@@H]1Cc3ccccc3CN1C2=O has pEC50 strictly less than 10
-- reply false

-- ask Does the reported pEC50 of COc1cc2c(cc1OCC13CC(COc4cc5c(cc4OC)C(=O)N4CC6(CC6)C[C@H]4C=N5)(C1)C3)N=C[C@@H]1Cc3ccccc3CN1C2=O stay below 10?
-- reply true

-- ask Report whether reported pEC50 is lower than 10 (strictly) for COc1cc2c(cc1OCc1cccc(COc3cc4c(cc3OC)C(=O)N3CC5(CC5)C[C@H]3CN4)c1)N=C[C@@H]1CC3(CC3)CN1C2=O
-- reply false

-- ask In plain terms, does COc1cc2c(cc1OCC13CC(COc4cc5c(cc4OC)C(=O)N4Cc6ccccc6C[C@H]4CN5)(C1)C3)N=C[C@@H]1CC3(CC3)CN1C2=O come in under 10 for pEC50?
-- reply true

-- ask pEC50 under 10? Item: COc1cc2c(cc1OCCCOc1cc3c(cc1OC)C(=O)N1CC4(CC4)C[C@H]1C=N3)N=C[C@@H]1Cc3ccccc3CN1C2=O
-- reply false

-- ask Say whether its pEC50 is strictly beneath 10. Entry: COc1cc2c(cc1OCc1cccc(COc3cc4c(cc3OC)C(=O)N3CC5(CC5)C[C@H]3C=N4)n1)N=C[C@@H]1CC3(CC3)CN1C2=O
-- reply false

-- ask Given COc1cc2c(cc1OCc1cccc(COc3cc4c(cc3OC)C(=O)N3CC5(CC5)C[C@H]3C=N4)c1)N=C[C@@H]1CC3(CC3)CN1C2=O , is recorded pEC50 strictly lower than 10?
-- reply false

-- ask Hello, I'm reviewing records and need to know if pEC50 of COc1cc2c(cc1OCc1cccc(COc3cc4c(cc3OC)C(=O)N3CC5(CC5)C[C@H]3CN4)c1)NC[C@@H]1CC3(CC3)CN1C2=O is below 10. Could you check?
-- reply true

* * *

- Tested on: Calu-6 cells
- Measurement notes: Compounds cellular killing in Calu-6 cancer line (Cell Titer-Glo, 6 days)
- Type: cell-based, human
- Applied conditions: Homo sapiens, Calu-6, 144 h, 6 days incubation, cell viability by Cell Titer-Glo
pEC50: −log10 of the molar value.
Mark true (1) only when pEC50 stays strictly below 10. Values equal to the cut-off are false (0).

Some entries whose results are on file:
COc1cc2c(cc1OCCCCCOc1cc3c(cc1OC)C(=O)N1CC4(CC4)C[C@H]1CN3)N=C[C@@H]1Cc3ccccc3CN1C2=O
false (0)
COc1cc2c(cc1OCCCOc1cc3c(cc1OC)C(=O)N1CC4(CC4)C[C@H]1C=N3)N=C[C@@H]1Cc3ccccc3CN1C2=O
false (0)
C=C1C[C@H]2C=Nc3cc(OCCN(C)CCOc4cc5c(cc4OC)C(=O)N4CC(=C)C[C@H]4C=N5)c(OC)cc3C(=O)N2C1
true (1)

-- ask Lab log: compare recorded pEC50 with 10; is it strictly lower for COc1cc2c(cc1OCCCOc1cc3c(cc1OC)C(=O)N1CC4(CC4)C[C@H]1CN3)N=C[C@@H]1Cc3ccccc3CN1C2=O ?
-- reply false (0)

* * *

- System: A375 cells
- Measurement notes: Compounds cellular killing in A375 cancer line (Cell Titer-Glo, 6 days)
- Assay type: cell-based, human
- Applied conditions: Homo sapiens, A-375, 144 h, 6 days incubation, cell viability by Cell Titer-Glo
Doc: threshold 0.1 nM (exclusive). Items with EC50 beneath it return Satisfied; others return Not satisfied.

Example entries and their recorded answers appear below.
COc1cc2c(cc1OCCCCCOc1cc3c(cc1OC)C(=O)N1Cc4ccccc4C[C@H]1C=N3)N=C[C@@H]1CC3(CCN1C2=O)CC3
Satisfied
COc1cc2c(cc1OC/C=C/CCOc1cc3c(cc1OC)C(=O)N1CC4(CC4)C[C@H]1C=N3)N=C[C@@H]1CC3(CC3)CN1C2=O
Not satisfied
COc1cc2c(cc1OCCCCCOc1cc3c(cc1OC)C(=O)N1CC4(CC4)C[C@H]1C=N3)N=C[C@@H]1CCCCN1C2=O
Not satisfied

-- ask Dear reviewer, please state whether COc1cc2c(cc1OCCCCCOc1cc3c(cc1OC)C(=O)N1Cc4ccccc4C[C@H]1CN3)N=C[C@@H]1CC3(CC3)CN1C2=O has EC50 strictly beneath 0.1 nM.
-- reply Not satisfied

* * *

- Test system: Calu-6 cells
- Measurement notes: Compounds cellular killing in Calu-6 cancer line (Cell Titer-Glo, 6 days)
- Type: cell-based, human
- Applied conditions: Homo sapiens, Calu-6, 144 h, 6 days incubation, cell viability by Cell Titer-Glo
Catalogue of EC50 values
Express the result in nM but write the number alone.

COc1cc2c(cc1OCCOCCOc1cc3c(cc1OC)C(=O)N1CC4(CC4)C[C@H]1C=N3)N=C[C@@H]1Cc3ccccc3CN1C2=O
0.165
COc1cc2c(cc1OC/C=C/CCOc1cc3c(cc1OC)C(=O)N1CC4(CC4)C[C@H]1C=N3)N=C[C@@H]1CC3(CC3)CN1C2=O
0.052
COc1cc2c(cc1OCCCCCOc1cc3c(cc1OC)C(=O)N1CC4(CC4)C[C@H]1C=N3)N=C[C@@H]1CCCCN1C2=O
0.038
COc1cc2c(cc1OCC13CC(COc4cc5c(cc4OC)C(=O)N4CC6(CC6)C[C@H]4C=N5)(C1)C3)N=C[C@@H]1Cc3ccccc3CN1C2=O
0.34
C=C1CCN2C(=O)c3cc(OC)c(OCCCCCOc4cc5c(cc4OC)C(=O)N4CC6(CC6)C[C@H]4C=N5)cc3N=C[C@@H]2C1
0.017
COc1cc2c(cc1OCCCCCOc1cc3c(cc1OC)C(=O)N1CC4(CC4)C[C@H]1CN3)NC[C@@H]1Cc3ccccc3CN1C2=O
0.077
COc1cc2c(cc1OCc1cccc(COc3cc4c(cc3OC)C(=O)N3CC5(CC5)C[C@H]3C=N4)c1)N=C[C@@H]1CC3(CC3)CN1C2=O
0.005

Continue with the compound presented below.
-- ask Output measured EC50 for this item: COc1ccc(C2=CN3C(=O)c4cc(OC)c(OCCCCCOc5cc6c(cc5OC)C(=O)N5CCC7(CC7)C[C@H]5C=N6)cc4NC[C@@H]3C2)cc1
-- reply 0.033
